Reference source for all entries: ChEMBL document CHEMBL1140266

- experiment.summary: in vivo
- condition.parameters: Sprague-Dawley, rat, po, 2 mg/kg
experimental.readout: bioavailability

Batch request: bioavailability for each of the following compounds.
1. CC(C)Cc1ccc(OCCCOc2ccc3c(c2)O[C@@](C)(C(=O)O)CC3)c(Cl)c1
2. CC[C@]1(C(=O)O)CCc2ccc(OCCCOc3ccc(C4CCC5(CC4)CC5)cc3Cl)cc2O1
3. C[C@]1(C(=O)O)CCc2ccc(OCCCOc3ccc(C4CCCC4)cc3Cl)cc2O1
4. CC[C@]1(C(=O)O)CCc2ccc(OCCCOc3ccc(C4CCCCC4)cc3Cl)cc2O1
5. CC[C@]1(C(=O)O)CCc2ccc(OCCCOc3ccc(C4CCOCC4)cc3Cl)cc2O1
6. C[C@]1(C(=O)O)CCc2ccc(OCCCOc3ccc(OCC4CC4)cc3Cl)cc2O1

1. 87%
2. 37%
3. 54%
4. 57%
5. 77%
6. 76%
